Values compiled from paper PMC11011246.

experiment: 4-week GLP toxicity study; conditions: both, beagle, dog, in vivo, po
measurementName: NOAEL at 4 weeks (mg/kg/day)
Expressed in mg/kg/day, but write only the number.

Q. Entry CCCS(=O)(=O)Nc1c(F)ccc(C(=O)c2n[nH]c3ncc(-c4ccncc4)cc23)c1F [HRX215] : reported NOAEL at 4 weeks = ?
A. 250

* * *

assay: 4-week GLP toxicity study; conditions: both, Wistar Han, rat, in vivo, po
measurementName: NOAEL at 4 weeks (mg/kg/day)
Expressed in mg/kg/day, but write only the number.

Q. Entry CCCS(=O)(=O)Nc1c(F)ccc(C(=O)c2n[nH]c3ncc(-c4ccncc4)cc23)c1F [HRX215] : reported NOAEL at 4 weeks = ?
A. 300

* * *

experiment: First-in-human phase I trial, pharmacokinetics; assay type: in vivo; settings: male, plasma, oral, 50 mg, Tmax, 50 mg single dose, fasting
measurementName: Tmax
The answer consists of two parts: a number and, after it, its unit.

Q. Entry "CCCS(=O)(=O)Nc1c(F)ccc(C(=O)c2n[nH]c3ncc(-c4ccncc4)cc23)c1F" : reported Tmax = ?
A. 1.2 h
